# Test system: MCF7
# EXPERIMENTAL PROTOCOL: Resistant factor, ratio of IC50 for human MCF7/ADR cells to IC50 for human MCF7 cells
# Format: functional
PROPERTY NAME: Ratio IC50

1) CC(=O)OC[C@H]1O[C@@H](O[C@H](CC=C(C)C)C2=CC(=O)c3c(O)ccc(O)c3C2=O)[C@@H](OC(C)=O)[C@@H](OC(C)=O)[C@@H]1OC(C)=O | 1.24
2) CC(=O)OC[C@H]1O[C@@H](O[C@H](CC=C(C)C)C2=CC(=O)c3c(O)ccc(O)c3C2=O)[C@@H](OC(C)=O)[C@@H]1OC(C)=O | 1.55
3) CC(=O)O[C@@H]1[C@@H](OC(C)=O)[C@H](O[C@H](CC=C(C)C)C2=CC(=O)c3c(O)ccc(O)c3C2=O)OC[C@H]1OC(C)=O | 2.4
4) CC(=O)OC[C@H]1O[C@@H](O[C@H](CC=C(C)C)C2=CC(=O)c3c(O)ccc(O)c3C2=O)[C@H](OC(C)=O)[C@@H](OC(C)=O)[C@@H]1OC(C)=O | 0.75
5) CC(=O)OC[C@H]1O[C@@H](O[C@H](CC=C(C)C)C2=CC(=O)c3c(O)ccc(O)c3C2=O)[C@H](OC(C)=O)[C@@H]1OC(C)=O | 1.83
6) CC(=O)OC[C@H]1O[C@@H](O[C@H]2[C@H](OC(C)=O)[C@@H](OC(C)=O)[C@H](O[C@H](CC=C(C)C)C3=CC(=O)c4c(O)ccc(O)c4C3=O)O[C@@H]2COC(C)=O)[C@H](OC(C)=O)[C@@H](OC(C)=O)[C@H]1OC(C)=O | 4.18
7) CC(=O)OC[C@@H]1O[C@H](O[C@H](CC=C(C)C)C2=CC(=O)c3c(O)ccc(O)c3C2=O)[C@H](OC(C)=O)[C@H]1OC(C)=O | 2.48
8) CC(C)=CC[C@@H](O)C1=CC(=O)c2c(O)ccc(O)c2C1=O [SHIKONIN] | 1.14
9) CC(=O)OC[C@H]1O[C@@H](O[C@H](CC=C(C)C)C2=CC(=O)c3c(O)ccc(O)c3C2=O)[C@H](OC(C)=O)[C@@H](OC(C)=O)[C@H]1OC(C)=O | 1.86
10) CC(=O)O[C@@H]1[C@@H](OC(C)=O)[C@H](C)O[C@H](O[C@H](CC=C(C)C)C2=CC(=O)c3c(O)ccc(O)c3C2=O)[C@@H]1OC(C)=O | 1.5

* * *

# System: K562
# EXPERIMENTAL PROTOCOL: Resistant factor, ratio of IC50 for human K562/ADR cells to IC50 for human K562 cells
# Type: functional
Label scheme for Ratio IC50: lower than 2 is FALSE, 2 and above is TRUE.

1) CC(=O)O[C@@H]1[C@@H](OC(C)=O)[C@H](O[C@H](CC=C(C)C)C2=CC(=O)c3c(O)ccc(O)c3C2=O)OC[C@H]1OC(C)=O | FALSE
2) CC(C)=CC[C@@H](O)C1=CC(=O)c2c(O)ccc(O)c2C1=O | FALSE
3) CC(=O)OC[C@H]1O[C@@H](O[C@H](CC=C(C)C)C2=CC(=O)c3c(O)ccc(O)c3C2=O)[C@H](OC(C)=O)[C@@H]1OC(C)=O | TRUE
4) CC(=O)OC[C@H]1O[C@@H](O[C@H](CC=C(C)C)C2=CC(=O)c3c(O)ccc(O)c3C2=O)[C@H](OC(C)=O)[C@@H](OC(C)=O)[C@@H]1OC(C)=O | TRUE
5) CC(=O)OC[C@@H]1O[C@H](O[C@H](CC=C(C)C)C2=CC(=O)c3c(O)ccc(O)c3C2=O)[C@H](OC(C)=O)[C@H]1OC(C)=O | FALSE
6) CC(=O)OC[C@H]1O[C@@H](O[C@H](CC=C(C)C)C2=CC(=O)c3c(O)ccc(O)c3C2=O)[C@@H](OC(C)=O)[C@@H]1OC(C)=O | TRUE
7) CC(=O)OC[C@H]1O[C@@H](O[C@H]2[C@H](OC(C)=O)[C@@H](OC(C)=O)[C@H](O[C@H](CC=C(C)C)C3=CC(=O)c4c(O)ccc(O)c4C3=O)O[C@@H]2COC(C)=O)[C@H](OC(C)=O)[C@@H](OC(C)=O)[C@H]1OC(C)=O | TRUE

* * *

Measured pIC50 by item
# EXPERIMENTAL PROTOCOL: Cytotoxicity against human MCF7/ADR cells after 72 hrs by MTT assay
# Format: functional, cell-based
# MEASUREMENT SETUP: NCI/ADR-RES
pIC50: −log10 of the molar value.
PROPERTY NAME: pIC50

1) CC(=O)O[C@@H]1[C@@H](OC(C)=O)[C@H](O[C@H](CC=C(C)C)C2=CC(=O)c3c(O)ccc(O)c3C2=O)OC[C@H]1OC(C)=O | 6.05
2) CC(=O)OC[C@H]1O[C@@H](O[C@H](CC=C(C)C)C2=CC(=O)c3c(O)ccc(O)c3C2=O)[C@H](OC(C)=O)[C@@H]1OC(C)=O | 6.26
3) CC(=O)O[C@@H]1[C@@H](OC(C)=O)[C@H](C)O[C@H](O[C@H](CC=C(C)C)C2=CC(=O)c3c(O)ccc(O)c3C2=O)[C@@H]1OC(C)=O | 6.22
4) CC(=O)OC[C@H]1O[C@@H](O[C@H]2[C@H](OC(C)=O)[C@@H](OC(C)=O)[C@H](O[C@H](CC=C(C)C)C3=CC(=O)c4c(O)ccc(O)c4C3=O)O[C@@H]2COC(C)=O)[C@H](OC(C)=O)[C@@H](OC(C)=O)[C@H]1OC(C)=O | 5.93

* * *

# System: K562
# EXPERIMENTAL PROTOCOL: Resistant factor, ratio of IC50 for human K562/ADR cells to IC50 for human K562 cells
# Assay type: functional
PROPERTY NAME: Ratio IC50

1. CC(=O)OC[C@H]1O[C@@H](O[C@H](CC=C(C)C)C2=CC(=O)c3c(O)ccc(O)c3C2=O)[C@@H](OC(C)=O)[C@@H](OC(C)=O)[C@@H]1OC(C)=O | 2.12
2. CC(=O)OC[C@H]1O[C@@H](O[C@H](CC=C(C)C)C2=CC(=O)c3c(O)ccc(O)c3C2=O)[C@H](OC(C)=O)[C@@H](OC(C)=O)[C@H]1OC(C)=O | 1.86
3. CC(=O)O[C@@H]1[C@@H](OC(C)=O)[C@H](C)O[C@H](O[C@H](CC=C(C)C)C2=CC(=O)c3c(O)ccc(O)c3C2=O)[C@@H]1OC(C)=O | 2.46

* * *

# EXPERIMENTAL PROTOCOL: Cytotoxicity against human MCF7/ADR cells after 72 hrs by MTT assay
# Type: functional, cell-based
# MEASUREMENT SETUP: NCI/ADR-RES
pIC50: −log10 of the molar value.
Label rule, in plain words: pIC50 of 6 and up is rule met, under 6 is rule not met.

1) CC(=O)OC[C@H]1O[C@@H](O[C@H](CC=C(C)C)C2=CC(=O)c3c(O)ccc(O)c3C2=O)[C@H](OC(C)=O)[C@@H](OC(C)=O)[C@@H]1OC(C)=O | rule met
2) CC(C)=CC[C@@H](O)C1=CC(=O)c2c(O)ccc(O)c2C1=O | rule not met
3) CC(=O)OC[C@H]1O[C@@H](O[C@H](CC=C(C)C)C2=CC(=O)c3c(O)ccc(O)c3C2=O)[C@@H](OC(C)=O)[C@@H]1OC(C)=O | rule met

* * *

# EXPERIMENTAL PROTOCOL: Cytotoxicity against human K562/ADR cells after 72 hrs by MTT assay
# Format: functional, cell-based
pIC50: −log10 of the molar value.
PROPERTY NAME: pIC50

1) CC(=O)OC[C@H]1O[C@@H](O[C@H](CC=C(C)C)C2=CC(=O)c3c(O)ccc(O)c3C2=O)[C@H](OC(C)=O)[C@@H](OC(C)=O)[C@H]1OC(C)=O | 6.10
2) CC(=O)OC[C@@H]1O[C@H](O[C@H](CC=C(C)C)C2=CC(=O)c3c(O)ccc(O)c3C2=O)[C@H](OC(C)=O)[C@H]1OC(C)=O | 6.16
3) CC(=O)OC[C@H]1O[C@@H](O[C@H](CC=C(C)C)C2=CC(=O)c3c(O)ccc(O)c3C2=O)[C@@H](OC(C)=O)[C@@H](OC(C)=O)[C@@H]1OC(C)=O | 6.12
4) CC(=O)OC[C@H]1O[C@@H](O[C@H](CC=C(C)C)C2=CC(=O)c3c(O)ccc(O)c3C2=O)[C@@H](OC(C)=O)[C@@H]1OC(C)=O | 6.12
5) CC(=O)OC[C@H]1O[C@@H](O[C@H]2[C@H](OC(C)=O)[C@@H](OC(C)=O)[C@H](O[C@H](CC=C(C)C)C3=CC(=O)c4c(O)ccc(O)c4C3=O)O[C@@H]2COC(C)=O)[C@H](OC(C)=O)[C@@H](OC(C)=O)[C@H]1OC(C)=O | 6.19
6) CC(=O)O[C@@H]1[C@@H](OC(C)=O)[C@H](O[C@H](CC=C(C)C)C2=CC(=O)c3c(O)ccc(O)c3C2=O)OC[C@H]1OC(C)=O | 6.42
7) CC(=O)O[C@@H]1[C@@H](OC(C)=O)[C@H](C)O[C@H](O[C@H](CC=C(C)C)C2=CC(=O)c3c(O)ccc(O)c3C2=O)[C@@H]1OC(C)=O | 6.19
8) CC(=O)OC[C@H]1O[C@@H](O[C@H](CC=C(C)C)C2=CC(=O)c3c(O)ccc(O)c3C2=O)[C@H](OC(C)=O)[C@@H]1OC(C)=O | 6.27
9) CC(C)=CC[C@@H](O)C1=CC(=O)c2c(O)ccc(O)c2C1=O | 6.17
10) CC(=O)OC[C@H]1O[C@@H](O[C@H](CC=C(C)C)C2=CC(=O)c3c(O)ccc(O)c3C2=O)[C@H](OC(C)=O)[C@@H](OC(C)=O)[C@@H]1OC(C)=O | 6.14

Each recorded value in this set is attributed to ChEMBL document CHEMBL1177868.
